For each entry below, report its pIC50 value.
Formally, pIC50 is defined as -log10 of the concentration c, with c in mol/L.

IN: What reported pIC50 corresponds to `Cc1ccc2c(c1)[C@H]1CCC[C@H]1C(N)=N2` on UniProt P35228?
OUT: 4.92

IN: GET /values?readout=pIC50&system=UniProt P35228&item= `NC1=Nc2ccccc2[C@H]2COC[C@@H]12`
Sequence (P35228 whole entry): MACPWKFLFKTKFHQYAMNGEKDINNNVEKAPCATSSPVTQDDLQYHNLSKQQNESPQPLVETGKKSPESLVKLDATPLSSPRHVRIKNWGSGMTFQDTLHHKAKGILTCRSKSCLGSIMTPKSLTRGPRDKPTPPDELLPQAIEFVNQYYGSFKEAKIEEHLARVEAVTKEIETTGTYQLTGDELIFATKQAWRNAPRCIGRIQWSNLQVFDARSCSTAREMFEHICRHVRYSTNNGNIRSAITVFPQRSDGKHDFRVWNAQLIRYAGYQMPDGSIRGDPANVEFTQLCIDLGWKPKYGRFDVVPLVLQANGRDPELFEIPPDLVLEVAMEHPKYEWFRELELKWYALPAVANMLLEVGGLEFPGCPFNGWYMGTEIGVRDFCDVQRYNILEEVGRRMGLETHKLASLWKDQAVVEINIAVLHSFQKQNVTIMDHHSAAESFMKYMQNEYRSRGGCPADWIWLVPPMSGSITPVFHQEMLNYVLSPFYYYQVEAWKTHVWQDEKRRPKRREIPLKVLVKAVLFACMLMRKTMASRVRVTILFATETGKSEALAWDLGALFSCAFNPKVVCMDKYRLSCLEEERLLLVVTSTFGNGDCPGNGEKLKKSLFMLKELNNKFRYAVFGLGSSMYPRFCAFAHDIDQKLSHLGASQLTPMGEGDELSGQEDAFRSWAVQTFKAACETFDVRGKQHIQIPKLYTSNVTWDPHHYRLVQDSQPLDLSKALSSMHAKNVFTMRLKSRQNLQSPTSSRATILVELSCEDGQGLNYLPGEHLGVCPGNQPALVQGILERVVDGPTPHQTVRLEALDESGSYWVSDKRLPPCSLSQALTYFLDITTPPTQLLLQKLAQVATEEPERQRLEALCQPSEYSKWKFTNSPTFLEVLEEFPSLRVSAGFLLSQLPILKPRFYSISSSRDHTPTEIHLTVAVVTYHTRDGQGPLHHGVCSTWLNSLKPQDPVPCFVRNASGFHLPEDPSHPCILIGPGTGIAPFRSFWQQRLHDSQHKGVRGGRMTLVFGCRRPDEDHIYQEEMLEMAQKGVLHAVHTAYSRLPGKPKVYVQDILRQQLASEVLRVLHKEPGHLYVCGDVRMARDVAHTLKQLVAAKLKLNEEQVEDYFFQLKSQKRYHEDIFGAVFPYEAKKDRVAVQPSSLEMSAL
OUT: 5.39

IN: Give recorded pIC50 with UniProt P35228 for the following compound: `COc1ccc2c(c1)N=C(N)[C@@H]1CCC[C@H]21`
OUT: 5.85

IN: Test system UniProt P35228; read-out pIC50; what value for COC(=O)[C@@H](N)CCCNC(=N)N[N+](=O)[O-] [L-NAME] ?
OUT: 5.10

IN: Any idea what pIC50 came out for `Cc1ccc2c(c1)N=C(N)[C@@H]1CCC[C@H]21` on UniProt P35228?
OUT: 5.96

IN: Provide the documented pIC50 with UniProt P35228 as the system for `NC1=Nc2cc(F)ccc2[C@H]2CCC[C@@H]12`
OUT: 5.96

IN: For UniProt P35228, provide pIC50 of `NC1=Nc2c(F)cccc2[C@H]2CCC[C@@H]12` please.
OUT: 5.64

IN: State its pIC50 on UniProt P35228: `NC1=Nc2c(Cl)cc(Cl)cc2[C@H]2CCC[C@@H]12`
OUT: 4.52

IN: Reported pIC50 for UniProt P35228, given `NC1=Nc2ccc(Cl)cc2[C@H]2CCC[C@@H]12` ?
OUT: 5.24

IN: pIC50 of `NC1=Nc2c(F)cc(Cl)cc2[C@H]2CCC[C@@H]12` on UniProt P35228?
OUT: 4.46

IN: What value of pIC50 on UniProt P35228 does `NC1=Nc2c(ccc(F)c2F)[C@H]2CCC[C@@H]12` have?
OUT: 5.29

IN: Form: Entry = `N#Cc1ccc2c(c1)[C@H]1CCC[C@H]1C(N)=N2` | System = UniProt P35228 | pIC50 = ____
OUT: 4.49
